Values from ChEMBL document CHEMBL4706645

# assay-target: Aldehyde dehydrogenase, mitochondrial (Homo sapiens) (UniProt P05091)
# Sequence (P05091 whole entry, the tested form may be a part): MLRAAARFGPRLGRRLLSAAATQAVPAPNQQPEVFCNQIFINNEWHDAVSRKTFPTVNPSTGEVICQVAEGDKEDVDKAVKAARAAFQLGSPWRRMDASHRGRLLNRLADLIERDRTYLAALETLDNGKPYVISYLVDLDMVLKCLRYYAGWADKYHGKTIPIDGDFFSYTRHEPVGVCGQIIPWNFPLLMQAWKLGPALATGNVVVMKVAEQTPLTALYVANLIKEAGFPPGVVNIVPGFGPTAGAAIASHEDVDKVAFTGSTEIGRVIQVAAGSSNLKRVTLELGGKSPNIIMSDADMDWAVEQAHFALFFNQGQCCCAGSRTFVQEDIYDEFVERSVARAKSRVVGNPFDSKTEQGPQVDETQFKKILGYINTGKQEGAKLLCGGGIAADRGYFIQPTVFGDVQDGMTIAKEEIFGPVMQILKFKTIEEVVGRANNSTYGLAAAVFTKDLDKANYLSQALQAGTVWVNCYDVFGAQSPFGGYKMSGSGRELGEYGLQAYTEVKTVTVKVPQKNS
# experiment: Allosteric activation of recombinant human full-length ALDH2 (18 to 517 residues) expressed in Escherichia coli at 100 uM using acetaldehyde as substrate measured after 3 hrs in presence of NAD+ by […] relative to Alda-1
Activity calls are given as the source filed them. No cut-off for these calls is given here.

given-smiles	fold change (FC)
COc1ccc(CN(C(C)=O)c2ccc(N3CCOCC3)c(C(=O)NCC(C)(C)O)c2)cc1F	inactive
O=C(O)c1cc(NCc2ccc3c(c2)OCO3)ccc1Cl	inactive
COc1ccc(CN(C(C)=O)c2ccc(N3CCOCC3)c(C(=O)NCC3(O)CC3)c2)cc1F	inactive
O=C(O)c1cc(NCc2ccc3c(c2)OCO3)ccc1N1CCOCC1	23%
COc1ccc(CN(C)c2ccc(N3CCOCC3)c(C(=O)NCC3CC3)c2)cc1F	inactive
Clc1cc(NCc2ccc3c(c2)OCO3)ccc1N1CCOCC1	inactive
COc1ccc(CNc2ccc(-c3ccccc3)c(C(=O)NCC3CC3)c2)cc1F	3%
Fc1ccc(NCc2ccc3c(c2)OCO3)cc1	inactive
COc1ccc(CNc2ccc(N3CCCCC3)c(C(=O)NCC3CC3)c2)cc1F	inactive
Clc1ccc(NCc2ccc3c(c2)OCO3)cc1Cl	inactive
O=C(CCC(=O)OCC(=O)c1ccccc1Cl)Nc1ccc(Cl)cc1	6%

* * *

# assay-target: Aldehyde dehydrogenase, mitochondrial (Homo sapiens) (UniProt P05091)
# experiment: Allosteric activation of recombinant human full-length ALDH2 (18 to 517 residues) expressed in Escherichia coli at 100 uM using acetaldehyde as substrate measured after 3 hrs in presence of NAD+ by […] relative to Alda-1
# experimental-context: filed as activator
Please assign a class to every record based on measured fold change (FC), with ranges b0 = under 60%, b1 = from 60% up to 90%, b2 = 90% and over

given-smiles	assay-target	label-class
COc1ccc(CNc2ccc(N3CCOCC3)c(C(=O)NCC(C)(C)O)c2)cc1F	Aldehyde dehydrogenase, mitochondrial (Homo sapiens) (UniProt P05091)	b2
COc1ccc(CNc2ccc(C3CCOCC3)c(C(=O)NCC3CC3)c2)cc1F	Aldehyde dehydrogenase, mitochondrial (Homo sapiens) (UniProt P05091)	b0
COc1ccc(CNc2ccc(N3CCC(O)CC3)c(C(=O)NCC3CC3)c2)cc1F	Aldehyde dehydrogenase, mitochondrial (Homo sapiens) (UniProt P05091)	b1
COc1ccc(CNc2ccc(N3CCOCC3)c(C(=O)NCC3CC3)c2)cc1F	Aldehyde dehydrogenase, mitochondrial (Homo sapiens) (UniProt P05091)	b2
COc1ccc(CNc2ccc(N3CCOCC3)c(C(=O)N3CCCCC3)c2)cc1F	Aldehyde dehydrogenase, mitochondrial (Homo sapiens) (UniProt P05091)	b1
CCNC(=O)c1cc(NCc2ccc(OC)c(F)c2)ccc1N1CCOCC1	Aldehyde dehydrogenase, mitochondrial (Homo sapiens) (UniProt P05091)	b1
COc1ccc(CNc2ccc(N3CCOCC3)c(C(=O)NCC3CCCC3)c2)cc1F	Aldehyde dehydrogenase, mitochondrial (Homo sapiens) (UniProt P05091)	b0
COc1ccc(CNc2ccc(N3CCOCC3)c(C(=O)NC3CC3)c2)cc1F	Aldehyde dehydrogenase, mitochondrial (Homo sapiens) (UniProt P05091)	b2
COc1ccc(CNc2ccc(N3CCOCC3)c(C(=O)NCC(C)(C)F)c2)cc1F	Aldehyde dehydrogenase, mitochondrial (Homo sapiens) (UniProt P05091)	b2
COc1ccc(CNc2cccc(C(=O)NCC3CC3)c2)cc1F	Aldehyde dehydrogenase, mitochondrial (Homo sapiens) (UniProt P05091)	b0
COc1ccc(CNc2ccc(N3CCOCC3)c(C(=O)NCC3(O)CC3)c2)cc1F	Aldehyde dehydrogenase, mitochondrial (Homo sapiens) (UniProt P05091)	b2
CCCNC(=O)c1cc(NCc2ccc(OC)c(F)c2)ccc1N1CCOCC1	Aldehyde dehydrogenase, mitochondrial (Homo sapiens) (UniProt P05091)	b2
COc1ccc(CNc2ccc(N3CCOCC3)c(C(=O)NCC3CCC3)c2)cc1F	Aldehyde dehydrogenase, mitochondrial (Homo sapiens) (UniProt P05091)	b0
CNC(=O)c1cc(NCc2ccc(OC)c(F)c2)ccc1N1CCOCC1	Aldehyde dehydrogenase, mitochondrial (Homo sapiens) (UniProt P05091)	b0
CCOC(=O)c1cc(NCc2ccc3c(c2)OCO3)ccc1N1CCOCC1	Aldehyde dehydrogenase, mitochondrial (Homo sapiens) (UniProt P05091)	b1
COc1ccc(CNc2ccc(N3CCOCC3)c(C(=O)NCC3CCCCC3)c2)cc1F	Aldehyde dehydrogenase, mitochondrial (Homo sapiens) (UniProt P05091)	b1
